- target.under.test: L858R/T790M EGFR (Homo sapiens, UniProt P00533, L858R/T790M)
- Construct: Assays to measure cellular phosphorylation of endogenous p-EGFR in cell lysates; endogenous in cells
- Sequence (P00533 25-1210 T790M/L858R): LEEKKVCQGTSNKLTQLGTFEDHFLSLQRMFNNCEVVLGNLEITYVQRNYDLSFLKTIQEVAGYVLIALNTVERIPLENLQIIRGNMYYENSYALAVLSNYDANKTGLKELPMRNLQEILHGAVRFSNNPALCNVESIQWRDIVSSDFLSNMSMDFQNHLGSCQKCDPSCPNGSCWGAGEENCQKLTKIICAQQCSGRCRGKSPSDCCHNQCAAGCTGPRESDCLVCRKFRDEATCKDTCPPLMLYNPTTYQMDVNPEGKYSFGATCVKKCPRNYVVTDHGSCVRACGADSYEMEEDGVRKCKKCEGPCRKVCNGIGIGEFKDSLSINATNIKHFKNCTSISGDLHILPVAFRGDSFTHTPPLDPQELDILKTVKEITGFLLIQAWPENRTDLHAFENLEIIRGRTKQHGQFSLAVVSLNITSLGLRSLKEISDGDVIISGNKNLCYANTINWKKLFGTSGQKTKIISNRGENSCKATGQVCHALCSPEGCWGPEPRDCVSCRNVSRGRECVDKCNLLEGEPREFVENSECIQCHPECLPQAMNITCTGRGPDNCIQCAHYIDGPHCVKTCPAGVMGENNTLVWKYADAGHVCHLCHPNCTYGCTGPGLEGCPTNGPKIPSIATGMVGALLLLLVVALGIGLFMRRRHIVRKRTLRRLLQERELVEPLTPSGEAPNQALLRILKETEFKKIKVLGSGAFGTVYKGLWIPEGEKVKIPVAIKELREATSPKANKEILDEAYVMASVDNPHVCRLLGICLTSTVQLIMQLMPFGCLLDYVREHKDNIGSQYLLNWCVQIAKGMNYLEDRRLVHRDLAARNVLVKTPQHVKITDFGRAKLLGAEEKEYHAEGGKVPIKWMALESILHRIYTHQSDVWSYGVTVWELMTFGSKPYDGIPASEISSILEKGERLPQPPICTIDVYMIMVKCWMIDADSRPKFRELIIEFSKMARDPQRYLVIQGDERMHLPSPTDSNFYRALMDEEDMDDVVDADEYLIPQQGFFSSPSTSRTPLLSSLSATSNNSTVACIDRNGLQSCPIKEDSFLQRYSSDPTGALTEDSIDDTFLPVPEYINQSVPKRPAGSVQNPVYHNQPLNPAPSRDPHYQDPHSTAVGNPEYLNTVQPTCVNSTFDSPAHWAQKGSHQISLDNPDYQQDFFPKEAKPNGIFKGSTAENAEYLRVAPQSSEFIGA
- experimental.details: L858R/T790M EGFR (double mutant) cellular phosphorylation assay
- stated.conditions: NCI-H1975 human lung cells; endogenous p-EGFR in cell lysates by ELISA; 2 h with compound
- Procedure: Assay 2: L858R/T790M EGFR (Double Mutant) Cellular Phosphorylation Assay The human lung cell lines NCI-H1975 were obtained from the American type Culture Collection. […] Cells were grown in a humidified incubator at 37° C. with 5% CO2. […] 40 μL of cells were seeded (10000 cells/well) in growth medium in Corning black, clear-bottomed 384-well plates and incubated at 37° C. with 5% CO2 overnight. […] 20 μL QuantaBlu stop solution were added to plates and fluorescence read on an Envision plate reader using […]
Assign classes using reported IC50 values and the ranges bottom = under 5 nM, middle = from 5 nM up to 10 nM, top = 10 nM and over, please.

Recorded results for 5 molecules are shown here.
molecule | target.under.test | class.label
C=CC(=O)Nc1cc(Nc2ncc(Cl)c(-c3cnn4ccccc34)n2)c(OC)cc1N(C)CCN1CCOCC1 [Example 31] | L858R/T790M EGFR (Homo sapiens, UniProt P00533, L858R/T790M) | middle
C=CC(=O)Nc1cc(Nc2ncc(C#N)c(-c3c[nH]c4ccccc34)n2)c(OC)cc1N1CCN(C)CC1 [Example 27] | L858R/T790M EGFR (Homo sapiens, UniProt P00533, L858R/T790M) | top
C=CC(=O)Nc1cc(Nc2nccc(-c3cnn4c3CCCC4)n2)c(OC)cc1N(C)CCN(C)C [Example 42] | L858R/T790M EGFR (Homo sapiens, UniProt P00533, L858R/T790M) | middle
C=CC(=O)Nc1cc(Nc2nccc(-c3cnn4ccccc34)n2)c(OC)cc1N1CC[C@@H](N(C)C)C1 [Example 52] | L858R/T790M EGFR (Homo sapiens, UniProt P00533, L858R/T790M) | top
C=CC(=O)Nc1cc(Nc2ncc(Cl)c(-c3cnn4ccccc34)n2)c(OC)cc1N1CC[C@H](N(C)C)C1 [Example 12] | L858R/T790M EGFR (Homo sapiens, UniProt P00533, L858R/T790M) | middle

input: Which bin, given its IC50, does C=CC(=O)Nc1cc(Nc2nccc(-c3c[nH]c4ccccc34)n2)c(OC)cc1N1CC(N(C)C)C1 [Example 58] occupy?
output: top

input: Which bin, given its IC50, does C=CC(=O)Nc1cc(Nc2nccc(-c3cnn4c3CCCC4)n2)c(OC)cc1N1CC[C@@H]2CN(C)C[C@@H]21 [Example 43] occupy?
output: top

###

The entries below come with measured IC50 values attached.
- target.under.test: L858R/T790M EGFR (Homo sapiens, UniProt P00533, L858R/T790M)
- Construct: Assays to measure cellular phosphorylation of endogenous p-EGFR in cell lysates; endogenous in cells
- experimental.details: L858R/T790M EGFR (double mutant) cellular phosphorylation assay
- stated.conditions: NCI-H1975 human lung cells; endogenous p-EGFR in cell lysates by ELISA; 2 h with compound
- Description: Assay 2: L858R/T790M EGFR (Double Mutant) Cellular Phosphorylation Assay The human lung cell lines NCI-H1975 were obtained from the American type Culture Collection. […] Cells were grown in a humidified incubator at 37° C. with 5% CO2. […] 40 μL of cells were seeded (10000 cells/well) in growth medium in Corning black, clear-bottomed 384-well plates and incubated at 37° C. with 5% CO2 overnight. […] 20 μL QuantaBlu stop solution were added to plates and fluorescence read on an Envision plate reader using […]
Give just the numeric value; nM need not be written.

input: State the recorded IC50 for this entry: `C=CC(=O)Nc1cc(Nc2nccc(-c3cnn4ccccc34)n2)c(OC)cc1N1CC(N(C)C)C1`
output: 28.2

Where do these numbers come from? They come from patent US11524951B2.
